B1: TRIM43 (parent)
chain: FCDMDKSLLCLLCSNSQEHGAHKH

Variants of: B1
Assay: protein stability index of a GFP-peptide fusion (GPS, HEK-293T) (PSI 1-6); higher = more stable;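 further: lentivirally expressed fusions sorted by FACS into six bins by GFP to DsRed ratio, PSI derived from sequencing read proportions per bin multiplied by bin number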
Details: c terminus: a fixed tail appended
Property label: protein stability index
Reply: number alone, nothing else.

Observe how each entry below is paired with its result.
mutation_annotation=M4K property_label="protein stability index" reported_value=1.7
mutation_annotation=K6T property_label="protein stability index" reported_value=1.94
mutation_annotation=K23E property_label="protein stability index" reported_value=2.05
mutation_annotation=S16G property_label="protein stability index" reported_value=2.22
mutation_annotation=H24L property_label="protein stability index" reported_value=1.53

Summary for this variant, "L12I" : protein stability index is 1.78

Summary for this variant, "S7L" : protein stability index is 1.93

Summary for this variant, "M4F" : protein stability index is 2.04

Summary for this variant, "L11Q" : protein stability index is 2.36

Summary for this variant, "F1M" : protein stability index is 3.41

Summary for this variant, "S16N" : protein stability index is 2.06

Where do these numbers come from? They come from the supplement of paper PMC10567573.
